Please go through the items and note down their abundance fitness.
B1: KAT8 regulatory NSL complex subunit 2, residues 28 to 91; numbered along this chain, Q9H9L4 (parent)
chain: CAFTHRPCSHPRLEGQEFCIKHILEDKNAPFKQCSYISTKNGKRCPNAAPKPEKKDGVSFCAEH

Variants of: B1
EXPERIMENT NOTES: abundance fitness (aPCA) (normalised: wild type 0, dead -1); higher = more abundant; growth selection in yeast, the domain comes from the species named
CONDITION CONTEXT: Homo sapiens
One number for each entry.

>>> measured_number("P50V")
-0.204
>>> measured_number("T4N")
-0.201

List the reported abundance fitness of each variant below.
1. G15M
2. G42I

Out:
[-0.199, -0.206]
